- Assayed System: UniProt:P34913
- Sequence (P34913 1-555): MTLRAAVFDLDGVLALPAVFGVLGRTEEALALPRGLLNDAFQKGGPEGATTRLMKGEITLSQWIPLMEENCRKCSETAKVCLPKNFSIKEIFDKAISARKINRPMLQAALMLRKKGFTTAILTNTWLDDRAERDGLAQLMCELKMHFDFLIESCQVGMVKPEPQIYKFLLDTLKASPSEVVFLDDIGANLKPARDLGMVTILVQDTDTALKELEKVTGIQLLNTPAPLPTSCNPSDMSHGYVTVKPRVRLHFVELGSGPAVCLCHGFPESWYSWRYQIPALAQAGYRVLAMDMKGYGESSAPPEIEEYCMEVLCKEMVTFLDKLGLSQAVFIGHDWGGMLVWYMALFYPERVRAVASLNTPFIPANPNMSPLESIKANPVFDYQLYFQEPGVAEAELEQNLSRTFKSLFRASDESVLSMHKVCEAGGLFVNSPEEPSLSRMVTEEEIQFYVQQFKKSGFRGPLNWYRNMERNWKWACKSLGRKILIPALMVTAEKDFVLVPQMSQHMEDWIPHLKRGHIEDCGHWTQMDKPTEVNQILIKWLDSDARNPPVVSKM
- Assay Procedure: sEH inhibitory activity, fluorescence assay with PHOME substrate
- Format: biochemical
- Test Settings: 100 µM compound; tested three times
Measured Attribute: Inhibition on sEH at 100 µM (%)

Compound	Result
C[C@@H]1O[C@@H](OC[C@H]2O[C@@H](Oc3c(-c4ccc(O)c(O)c4)oc4cc(O)cc(O)c4c3=O)[C@H](O)[C@@H](O)[C@@H]2O)[C@H](O)[C@H](O)[C@H]1O [Compound 16]	95.2 ± 0.2%
COc1cc([C@@H]2Oc3c(OC)cc(CCCO)cc3[C@H]2CO)cc(OC)c1O [Compound 21]	N.I
CC1OC(OCC2OC(OCCc3ccccc3)C(O)C(O)C2O)C(O)C(O)C1O (stereo not drawn) [Compound 36]	N.I
COc1cc([C@H]2Oc3c(OC)cc(CCCO)cc3[C@@H]2CO[C@@H]2O[C@H](CO)[C@@H](O)[C@H](O)[C@H]2O)ccc1O [Compound 20]	N.I
CC[C@H](/C=C/[C@@H](C)[C@H]1CC[C@H]2[C@@H]3CC=C4C[C@@H](O[C@@H]5O[C@H](CO)[C@@H](O)[C@H](O)[C@H]5O)CC[C@]4(C)[C@H]3CC[C@]12C)C(C)C [Compound 39]	N.I

Consider the record given below.
Give the measured Inhibition on sEH at 100 µM (%) for CC(=O)O[C@H]1[C@H](OC[C@H]2O[C@@H](Oc3c(-c4ccc(O)c(O)c4)oc4cc(O)cc(O)c4c3=O)[C@H](O)[C@@H](O)[C@@H]2O)O[C@@H](C)[C@H](O)[C@H]1O [Compound 17]
83.8 ± 3.7%

* * *

The following compounds are listed with their measured inhibition at 100 µM values.
- Assayed System: sEH (Homo sapiens)
- Assay Procedure: sEH inhibitory activity, fluorescence assay with PHOME substrate
- Format: biochemical
- Test Settings: 100 µM compound; tested three times
Write the number in % without appending the unit.

Check out these entries, answers already filled in.
Compound	Assayed System	Measured Attribute	Unit Tag	Numeric Value
C[C@@H]1O[C@@H](OC[C@H]2O[C@@H](Oc3c(-c4ccc(O)cc4)oc4cc(O)cc(O)c4c3=O)[C@H](O)[C@@H](O)[C@H]2O)[C@H](O)[C@H](O)[C@H]1O [Compound 15]	sEH (Homo sapiens)	inhibition at 100 µM	%	60.2
O=C(O)/C=C/c1ccc(O)cc1 [Compound 29]	sEH (Homo sapiens)	inhibition at 100 µM	%	39.7
O=C(/C=C/c1ccc(O)c(O)c1)O[C@@H]1C[C@@](O)(C(=O)O)C[C@@H](O)[C@@H]1O [Compound 1]	sEH (Homo sapiens)	inhibition at 100 µM	%	74.3
COC(=O)[C@@]1(O)C[C@@H](O)[C@H](O)[C@H](OC(=O)/C=C/c2ccc(O)c(O)c2)C1 [Compound 4]	sEH (Homo sapiens)	inhibition at 100 µM	%	68.3
O=c1c(O[C@@H]2O[C@H](CO)[C@@H](O)[C@H](O)[C@H]2O)c(-c2ccc(O)cc2)oc2cc(O)cc(O)c12 [Compound 14]	sEH (Homo sapiens)	inhibition at 100 µM	%	78

Give the measured inhibition at 100 µM for O=C(/C=C/c1ccc(O)cc1)O[C@@H]1C[C@@](O)(C(=O)O)C[C@@H](O)[C@@H]1O [Compound 2]
4.4

Give the measured inhibition at 100 µM for COc1ccc(C(=O)O)cc1O [Compound 27]
17.5

* * *

- Assayed System: sEH (Homo sapiens, UniProt P34913)
- Sequence (P34913 1-555): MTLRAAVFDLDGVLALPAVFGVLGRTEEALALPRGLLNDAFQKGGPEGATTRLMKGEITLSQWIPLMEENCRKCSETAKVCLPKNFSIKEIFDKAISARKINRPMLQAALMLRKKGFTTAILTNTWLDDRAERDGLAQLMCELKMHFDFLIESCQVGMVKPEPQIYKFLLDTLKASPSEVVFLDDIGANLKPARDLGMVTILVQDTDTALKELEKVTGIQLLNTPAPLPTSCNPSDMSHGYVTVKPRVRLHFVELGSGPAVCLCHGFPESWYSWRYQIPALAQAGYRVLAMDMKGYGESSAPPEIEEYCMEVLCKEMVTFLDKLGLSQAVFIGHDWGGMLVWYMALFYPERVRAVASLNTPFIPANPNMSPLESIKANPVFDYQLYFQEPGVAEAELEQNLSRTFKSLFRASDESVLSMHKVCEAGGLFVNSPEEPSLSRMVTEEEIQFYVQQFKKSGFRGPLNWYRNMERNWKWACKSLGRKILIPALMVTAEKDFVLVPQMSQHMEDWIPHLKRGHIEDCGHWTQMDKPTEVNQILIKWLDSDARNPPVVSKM
- Assay Procedure: sEH binding mechanism, Dixon and Lineweaver-Burk plots at different substrate and inhibitor concentrations
- Assay type: biochemical
- Test Settings: Dixon / Lineweaver-Burk plots

Compound Structure	Type of sEH inhibition
CC(=O)O[C@H]1[C@H](OC[C@H]2O[C@@H](Oc3c(-c4ccc(O)c(O)c4)oc4cc(O)cc(O)c4c3=O)[C@H](O)[C@@H](O)[C@@H]2O)O[C@@H](C)[C@H](O)[C@H]1O	non-competitive
C[C@@H]1O[C@@H](OC[C@H]2O[C@@H](Oc3c(-c4ccc(O)c(O)c4)oc4cc(O)cc(O)c4c3=O)[C@H](O)[C@@H](O)[C@@H]2O)[C@H](O)[C@H](O)[C@H]1O	non-competitive
O=c1c(O)c(-c2ccc(O)cc2)oc2cc(O)cc(O)c12	Non-competitive
O=c1cc(-c2ccc(O)cc2)oc2cc(O)cc(O)c12	Non-competitive

* * *

- Assayed System: sEH (Homo sapiens)
- Assay Procedure: sEH inhibitory activity, fluorescence assay with PHOME substrate
- Type: biochemical
- Test Settings: 100 µM compound; tested three times
Rule: inhibition at 100 µM of 20% or more gives 1 (yes); anything lower gives 0 (no).

Would you please look over these solved cases?
Compound	Group
O=C1CC(c2ccc(O)c(O)c2)c2c(O)cc3c(c2O1)CC(O)C(c1ccc(O)c(O)c1)O3 (centres unmarked) [Compound 22]	1 (yes)
C[C@@H]1CC[C@]2(C(=O)O)CC[C@]3(C)C(=CC[C@@H]4[C@@]5(C)C[C@@H](O)[C@@H](O)C(C)(C)[C@@H]5CC[C@]43C)[C@@H]2[C@]1(C)O [Compound 38]	1 (yes)
O=c1c(O)c(-c2ccc(O)cc2)oc2cc(O)cc(O)c12 [Compound 10, kaempferol]	1 (yes)
Oc1ccc(-c2ccc(O)c(O)c2)cc1O [Compound 33]	0 (no)
COc1cc(C(=O)O)ccc1O [Compound 26]	1 (yes)
OC[C@H]1O[C@@H](OC[C@@H](O)c2ccc(O)cc2)[C@H](O)[C@@H](O)[C@@H]1O [Compound 35]	0 (no)

Form field: inhibition at 100 µM at least 20%? Entry: COc1cc(C(=O)O)cc(OC)c1O [Compound 23]
0 (no)

Form field: inhibition at 100 µM at least 20%? Entry: O=C1c2c(O)cc(O)cc2O[C@H](c2ccc(O)cc2)[C@H]1O[C@@H]1O[C@H](CO)[C@@H](O)[C@H](O)[C@H]1O [Compound 13]
1 (yes)

* * *

- Assayed System: sEH (Homo sapiens, UniProt P34913)
- Assay Procedure: sEH inhibitory activity, fluorescence assay with PHOME substrate
- Assay type: biochemical
- Test Settings: 100 µM compound; tested three times
Rule: inhibition at 100 µM of 30% or more gives class 1; anything lower gives class 0.

Would you please look over these solved cases?
>>> df
                                   compound                      assayed_system    group
0  O=C(/C=C\c1ccc(O)cc1)O[C@@H]1C[C@@](O)(C(=O)O)C[C@@H](O)[C@@H]1O [Compound 9]  sEH (Homo sapiens, UniProt P34913)  class 1
1          O=C(CO)c1ccc(O)cc1 [Compound 28]  sEH (Homo sapiens, UniProt P34913)  class 0
2  O=c1cc(-c2ccc(O)cc2)oc2cc(O)cc(O)c12 [Compound 12, apigenin]  sEH (Homo sapiens, UniProt P34913)  class 1

Form field: inhibition at 100 µM at least 30%? Entry: O=C1C[C@@H](c2ccc(O)cc2)Oc2cc(O)ccc21 [Compound 11]
class 1

Form field: inhibition at 100 µM at least 30%? Entry: COc1cc(/C=C/C(=O)O[C@@H]2C[C@@](O)(C(=O)O)C[C@@H](O)[C@@H]2O)ccc1O [Compound 3]
class 1
